Source of measurements: ChEMBL document CHEMBL3580648

TEST: Inhibition of Saccharomyces cerevisiae alpha-glucosidase pre-incubated for 10 mins at 25 degC before addition of p-nitrophenyl-alpha-D-glucopyranoside substrate by UV absorption based assay
pIC50: −log10 of the molar value.
Entries and their pIC50 values follow.
MEASURE: pIC50

{"MOLECULE": "CC1=CC(=O)[C@@H](O)[C@]2(C)C[C@]3(O)OC(=O)C(C)=C3C[C@@H]12", "MEASURED": 3.25}
{"MOLECULE": "CC(=O)O[C@@H]1C[C@H](O)[C@H](C)[C@H]2CC3=C(C)C(=O)O[C@]3(O)C[C@@]21C", "MEASURED": "< 3.00"}
{"MOLECULE": "C[C@H]1O[C@H](O[C@H]2[C@H](O)[C@@H](O)[C@@H](O[C@H]3[C@H](O)[C@@H](O)C(O)O[C@@H]3CO)O[C@@H]2CO)[C@H](O)[C@@H](O)[C@@H]1N[C@H]1C=C(CO)[C@@H](O)[C@H](O)[C@H]1O (stereo partly specified) [ACARBOSE]", "MEASURED": 3.77}
{"MOLECULE": "CC(C)C1=C[C@@]23Oc4c(C(C)C)cc5c(c4O[C@]2(C(=O)C1=O)C12COC3C[C@H]1C(C)(C)C[C@H](O)C2)C12COC5C[C@H]1C(C)(C)C[C@H](O)C2 (stereo partly specified)", "MEASURED": "< 3.00"}
{"MOLECULE": "CC(C)C1=CC2=C(C(=O)C1=O)[C@]13CO[C@H]2C[C@H]1C(C)(C)C[C@H](O)C3", "MEASURED": "< 3.00"}
{"MOLECULE": "CC1=C2C[C@@H]3[C@@H](C)[C@@H](O)C[C@@H](O)[C@@]3(C)C[C@@]2(O)OC1=O", "MEASURED": "< 3.00"}

* * *

TEST: Inhibition of Saccharomyces cerevisiae alpha-glucosidase pre-incubated for 10 mins at 25 degC before addition of p-nitrophenyl-alpha-D-glucopyranoside substrate by UV absorption based assay
As shown below, each of these compounds has a reported IC50 value.

{"COMPOUND": "CC(C)c1cc2c(c(O)c1O)[C@]13CO[C@H]2C[C@H]1C(C)(C)C[C@H](O)C3", "IC50": "> 1000 µM"}
{"COMPOUND": "CC(C)C1=C[C@]23Oc4c(C(C)C)cc5c(c4O[C@@]2(C(=O)C1=O)C12COC3C[C@H]1C(C)(C)C[C@H](O)C2)C12COC5C[C@H]1C(C)(C)C[C@H](O)C2 (stereo not given in full)", "IC50": "> 1000 µM"}
{"COMPOUND": "CC(=O)O[C@H]1C[C@@H](O)[C@@]2(C)C[C@@]3(O)OC(=O)C(C)=C3C[C@@H]2[C@H]1C", "IC50": "> 1000 µM"}
{"COMPOUND": "CC(=O)O[C@@H]1C(=O)C=C(C)[C@]2(O)CC3=C(C)C(=O)O[C@@]3(O)C[C@@]12C", "IC50": "300 µM"}
{"COMPOUND": "CC(=O)O[C@@H]1C(=O)C=C(C)[C@@H]2CC3=C(C)C(=O)O[C@@]3(O)C[C@@]12C", "IC50": "> 1000 µM"}

* * *

System: HepG2
TEST: Cytotoxic activity against human HepG2 cells by MTT method
Assay type: functional, cell-based
Counter-ions that a name gives are not always drawn.

{"MOLECULE": "CC(C)C1=CC2=C(C(=O)C1=O)[C@]13CO[C@H]2C[C@H]1C(C)(C)C[C@H](O)C3", "IC50": "> 10 µM"}
{"MOLECULE": "CC1=CC(=O)[C@@H](O)[C@]2(C)C[C@]3(O)OC(=O)C(C)=C3C[C@@H]12", "IC50": "> 10 µM"}
{"MOLECULE": "CC(=O)O[C@@H]1C[C@H](O)[C@H](C)[C@H]2CC3=C(C)C(=O)O[C@]3(O)C[C@@]21C", "IC50": "> 10 µM"}
{"MOLECULE": "CC1=C2C[C@@H]3[C@@H](C)[C@@H](O)C[C@@H](O)[C@@]3(C)C[C@@]2(O)OC1=O", "IC50": "> 10 µM"}
{"MOLECULE": "CC(C)C1=C[C@@]23Oc4c(C(C)C)cc5c(c4O[C@]2(C(=O)C1=O)C12COC3C[C@H]1C(C)(C)C[C@H](O)C2)C12COC5C[C@H]1C(C)(C)C[C@H](O)C2 (stereo partly specified)", "IC50": "> 10 µM"}
{"MOLECULE": "CC(=O)O[C@@H]1C(=O)C=C(C)[C@@H]2CC3=C(C)C(=O)O[C@@]3(O)C[C@@]12C", "IC50": "> 10 µM"}
{"MOLECULE": "CC(C)c1cc2c(c(O)c1O)[C@]13CO[C@H]2C[C@H]1C(C)(C)C[C@H](O)C3", "IC50": "> 10 µM"}
{"MOLECULE": "COc1cccc2c1C(=O)c1c(O)c3c(c(O)c1C2=O)C[C@@](O)(C(=O)CO)C[C@@H]3O[C@H]1C[C@H](N)[C@H](O)[C@H](C)O1 [DOXORUBICIN HYDROCHLORIDE]", "IC50": "0.24 µM"}
{"MOLECULE": "CC(=O)O[C@H]1C[C@@H](O)[C@@]2(C)C[C@@]3(O)OC(=O)C(C)=C3C[C@@H]2[C@H]1C", "IC50": "> 10 µM"}
{"MOLECULE": "CC(=O)O[C@@H]1C(=O)C=C(C)[C@]2(O)CC3=C(C)C(=O)O[C@@]3(O)C[C@@]12C", "IC50": "> 10 µM"}
{"MOLECULE": "CC(C)C1=C[C@]23Oc4c(C(C)C)cc5c(c4O[C@@]2(C(=O)C1=O)C12COC3C[C@H]1C(C)(C)C[C@H](O)C2)C12COC5C[C@H]1C(C)(C)C[C@H](O)C2 (stereo partly specified)", "IC50": "5.2 µM"}
